experiment: Plasma and brain pharmacokinetics after single intravenous or intraperitoneal administration to the mouse; format: in vivo; details: male, plasma, iv, 1 mg/kg, plasma, IV 1 mg/kg, read-out: AUC0-24
Parameter Measured: AUC(0-t) (µg·h/mL)
Note: unit µg·h/mL is implicit; provide only the numeric part.

Asked: Find the recorded AUC(0-t) belonging to C=C(C)[C@@H]1CC(O)C(C)=C[C@H]1c1c(O)cc(CCCCC)cc1O (stereo partly drawn) [6-OH CBD, Alpha 6-hydroxy cannabidiol] and report it.
Given back: 0.343

* * *

assay: Plasma and brain pharmacokinetics after single intravenous or intraperitoneal administration to the mouse; format: in vivo; settings: male, brain, ip, brain, after IP dosing (3-30 mg/kg), read-out: Tmax range
Parameter Measured: Tmax

Asked: So what's the measured Tmax for this one? C=C(C)[C@@H]1CC(O)C(C)=C[C@H]1c1c(O)cc(CCCCC)cc1O (stereo partly drawn) [6-OH CBD, Alpha 6-hydroxy cannabidiol]
Given back: 15 to 60 min

* * *

assay: Plasma and brain pharmacokinetics after single intravenous or intraperitoneal administration to the mouse; format: in vivo; settings: male, brain, IP 10 mg/kg
Parameter Measured: Cmax (ng/mL)
Supply the numeric figure in ng/mL, leaving out any unit text.

Asked: Look up Cmax for this compound: C=C(C)[C@@H]1CC(O)C(C)=C[C@H]1c1c(O)cc(CCCCC)cc1O (stereo partly drawn) [6-OH CBD, Alpha 6-hydroxy cannabidiol]
Given back: 3680

* * *

assay: Plasma and brain pharmacokinetics after single intravenous or intraperitoneal administration to the mouse; format: in vivo; conditions: male, brain, IV 1 mg/kg
Parameter Measured: Cmax

Asked: Which value of Cmax has been reported for C=C(C)[C@@H]1CC(O)C(C)=C[C@H]1c1c(O)cc(CCCCC)cc1O (stereo partly drawn) [6-OH CBD, Alpha 6-hydroxy cannabidiol] in the records?
Given back: 1580 ng/mL

* * *

assay: Plasma and brain pharmacokinetics after single intravenous or intraperitoneal administration to the mouse; type: in vivo; details: male, plasma, IV 1 mg/kg
Parameter Measured: clearance (L/h/kg)
Give just the number in L/h/kg; leave the unit off.

Asked: Could you share which clearance value was measured for C=C(C)[C@@H]1CC(O)C(C)=C[C@H]1c1c(O)cc(CCCCC)cc1O (stereo partly drawn) [6-OH CBD, Alpha 6-hydroxy cannabidiol] ?
Given back: 2.92

* * *

assay: Plasma and brain pharmacokinetics after single intravenous or intraperitoneal administration to the mouse; assay type: in vivo; conditions: male, brain/plasma, other: intravenous and intraperitoneal, all IV and IP dose groups, read-out: Brain: plasma ratio for AUC0-24, range
Parameter Measured: Kp

Asked: Reported Kp for C=C(C)[C@@H]1CC(O)C(C)=C[C@H]1c1c(O)cc(CCCCC)cc1O (stereo partly drawn) [6-OH CBD, Alpha 6-hydroxy cannabidiol] : what is it?
Given back: 1.41 to 2.01

* * *

assay: Plasma and brain pharmacokinetics after single intravenous or intraperitoneal administration to the mouse; type: in vivo; details: male, plasma, ip, 3 mg/kg, plasma, IP 3 mg/kg, read-out: AUC0-24
Parameter Measured: AUC(0-t)
Report field: quantity (unit follows the number).

Asked: # get_value(readout='AUC(0-t)', item= C=C(C)[C@@H]1CC(O)C(C)=C[C@H]1c1c(O)cc(CCCCC)cc1O (stereo partly drawn) [6-OH CBD, Alpha 6-hydroxy cannabidiol] )
Given back: 535 ng·h/mL

* * *

assay: Plasma and brain pharmacokinetics after single intravenous or intraperitoneal administration to the mouse; format: in vivo; settings: male, brain, ip, 3 mg/kg, brain, IP 3 mg/kg, read-out: AUC0-t
Parameter Measured: AUC(0-t) (ng·h/mL)
Your answer should be a plain number; it is taken to be in ng·h/mL.

Asked: Find the recorded AUC(0-t) belonging to C=C(C)[C@@H]1CC(O)C(C)=C[C@H]1c1c(O)cc(CCCCC)cc1O (stereo partly drawn) [6-OH CBD, Alpha 6-hydroxy cannabidiol] and report it.
Given back: 756

* * *

assay: Plasma and brain pharmacokinetics after single intravenous or intraperitoneal administration to the mouse; assay type: in vivo; settings: male, plasma, ip, 3 mg/kg, plasma, IP 3 mg/kg, read-out: t1/2 (converted)
Parameter Measured: half-life (min)
All answers are understood in min, so give the number only.

Asked: # input compound: C=C(C)[C@@H]1CC(O)C(C)=C[C@H]1c1c(O)cc(CCCCC)cc1O (stereo partly drawn) [6-OH CBD, Alpha 6-hydroxy cannabidiol] ; wanted: its half-life
Given back: 59.6

* * *

experiment: Plasma and brain pharmacokinetics after single intravenous or intraperitoneal administration to the mouse; assay type: in vivo; settings: male, plasma, ip, 10 mg/kg, plasma, IP 10 mg/kg, read-out: AUC0-t
Parameter Measured: AUC(0-t)

Asked: Need AUC(0-t), item C=C(C)[C@@H]1CC(O)C(C)=C[C@H]1c1c(O)cc(CCCCC)cc1O (stereo partly drawn) [6-OH CBD, Alpha 6-hydroxy cannabidiol]
Given back: 2590 ng·h/mL

* * *

test: Plasma and brain pharmacokinetics after single intravenous or intraperitoneal administration to the mouse; assay type: in vivo; conditions: male, plasma, ip, 30 mg/kg, plasma, IP 30 mg/kg, read-out: t1/2 (converted)
Parameter Measured: half-life (min)
Number in min, nothing else.

Asked: Report half-life for C=C(C)[C@@H]1CC(O)C(C)=C[C@H]1c1c(O)cc(CCCCC)cc1O (stereo partly drawn) [6-OH CBD, Alpha 6-hydroxy cannabidiol] please.
Given back: 57.5

* * *

experiment: Plasma and brain pharmacokinetics after single intravenous or intraperitoneal administration to the mouse; assay type: in vivo; conditions: male, brain, ip, 30 mg/kg, brain, IP 30 mg/kg, read-out: Tmax (converted)
Parameter Measured: Tmax (h)
Report only the number, with the unit h understood.

Asked: Which Tmax is reported for this compound? C=C(C)[C@@H]1CC(O)C(C)=C[C@H]1c1c(O)cc(CCCCC)cc1O (stereo partly drawn) [6-OH CBD, Alpha 6-hydroxy cannabidiol]
Given back: 1

* * *

Experiment: Plasma and brain pharmacokinetics after single intravenous or intraperitoneal administration to the mouse
Assay type: in vivo
Details: male, plasma, iv, 1 mg/kg, plasma, IV 1 mg/kg, read-out: Tmax (converted)
Description: The objective of this study was to determine brain and plasma pharmacokinetic parameters of 6-OH CBD following a single intravenous or intraperitoneal administration of 6-OH CBD to the mouse; and to determine brain: plasma concentration ratios for 6-OH CBD. […] Stabilised plasma samples were analysed to determine the concentrations of 6-OH CBD, using qualified LC-MS/MS methods. The results of these analyses were evaluated to determine non-compartmental pharmacokinetic parameters. […]
Parameter Measured: Tmax
Include the unit after the number when you answer.

Asked: Fill in: Tmax of C=C(C)[C@@H]1CC(O)C(C)=C[C@H]1c1c(O)cc(CCCCC)cc1O (stereo partly drawn) [6-OH CBD, Alpha 6-hydroxy cannabidiol] is ___
Given back: 7.02 min

* * *

assay: Plasma and brain pharmacokinetics after single intravenous or intraperitoneal administration to the mouse; type: in vivo; details: male, plasma, IP 3 mg/kg
Parameter Measured: Cmax (ng/mL)
Please reply with the bare figure in ng/mL and do not write the unit itself.

Asked: Fill in the blank: the reported Cmax of C=C(C)[C@@H]1CC(O)C(C)=C[C@H]1c1c(O)cc(CCCCC)cc1O (stereo partly drawn) [6-OH CBD, Alpha 6-hydroxy cannabidiol] is ____.
Given back: 658

* * *

test: Plasma and brain pharmacokinetics after single intravenous or intraperitoneal administration to the mouse; format: in vivo; settings: male, plasma, IV 1 mg/kg, read-out: Vss
Parameter Measured: Vd (L/kg)
Give the number; L/kg is assumed, so skip it.

Asked: Reported Vd, compound C=C(C)[C@@H]1CC(O)C(C)=C[C@H]1c1c(O)cc(CCCCC)cc1O (stereo partly drawn) [6-OH CBD, Alpha 6-hydroxy cannabidiol] : ____
Given back: 1.9

* * *

assay: Plasma and brain pharmacokinetics after single intravenous or intraperitoneal administration to the mouse; assay type: in vivo; settings: male, plasma, ip, 30 mg/kg, plasma, IP 30 mg/kg, read-out: AUC0-24
Parameter Measured: AUC(0-t) (ng·h/mL)
I only need the number, in ng·h/mL, no unit after it.

Asked: Suppose we examine the molecule C=C(C)[C@@H]1CC(O)C(C)=C[C@H]1c1c(O)cc(CCCCC)cc1O (stereo partly drawn) [6-OH CBD, Alpha 6-hydroxy cannabidiol] ; what AUC(0-t) value has been reported?
Given back: 17700

* * *

experiment: Plasma and brain pharmacokinetics after single intravenous or intraperitoneal administration to the mouse; assay type: in vivo; conditions: male, plasma, ip, 3 mg/kg, plasma, IP 3 mg/kg, read-out: Tmax (converted)
Parameter Measured: Tmax (min)
The figure you give is taken to be in min; do not add the unit.

Asked: Tmax for C=C(C)[C@@H]1CC(O)C(C)=C[C@H]1c1c(O)cc(CCCCC)cc1O (stereo partly drawn) [6-OH CBD, Alpha 6-hydroxy cannabidiol] ?
Given back: 15

* * *

assay: Plasma and brain pharmacokinetics after single intravenous or intraperitoneal administration to the mouse; assay type: in vivo; details: male, brain, ip, 10 mg/kg, brain, IP 10 mg/kg, read-out: t1/2 (converted)
Parameter Measured: half-life (min)
Use min as the unit, but write only the number.

Asked: Quick one: half-life for C=C(C)[C@@H]1CC(O)C(C)=C[C@H]1c1c(O)cc(CCCCC)cc1O (stereo partly drawn) [6-OH CBD, Alpha 6-hydroxy cannabidiol] ?
Given back: 42.4
